protocol-details: Selectivity index, ratio of IC50 for HAF cells to IC50 for human HT-29 cells
Assay type: functional
Could you please report measured Ratio IC50 for the items listed next?
One number for each entry.

{"columns": ["chemical-structure", "Ratio IC50"],
 "data": [
  ["COc1cc2c(cc1C(=O)Nc1ccc(C)cc1)CC[C@H]1C(C)(C)[C@@H](O)CC[C@]21C", 3.1],
  ["COc1cc([C@@H]2c3cc4c(cc3[C@H](O)[C@H]3COC(=O)[C@H]23)OCO4)cc(OC)c1OC", 0.8],
  ["COc1cc2c(cc1C(=O)Nc1ccccc1)CC[C@H]1C(C)(C)[C@@H](O)CC[C@]21C", 1.9],
  ["COc1ccc(NC(=O)c2cc3c(cc2OC)[C@@]2(C)CC[C@H](O)C(C)(C)[C@@H]2CC3)cc1", 10]
]}

Name the recorded Ratio IC50 of the item `COc1cc2c(cc1C(=O)Nc1ccc(N(C)C)cc1)CC[C@H]1C(C)(C)[C@@H](O)CC[C@]21C` in your answer.
13.8
